Documented TGI across a set of compounds
# Test system: HCT-116 colon
# assay: NCI tumour cell line growth inhibition, 48 h

Some solved cases for reference:
[in] Give reported TGI value for O=C1NC(=O)C2(CCc3ccc(N(CCCl)CCCl)cc32)N1 (stereo unspecified)
[out] 31.7 µM

[in] In one line, give reported TGI of the entry `NC(N)=N/N=C/c1ccc(Br)cc1` .
[out] 15.8 µM

[in] Look up TGI of OCC(O)C(OC1OC(CO)C(O)C(O)C1O)c1nn(-c2ccc(Cl)cc2)c2nc3cc(Cl)ccc3nc12 (stereo unspecified) and report it.
[out] > 100 µM

[in] Tell me TGI reported for `Cc1c(C=C(C#N)C#N)c(=O)n(C)c(=O)n1C`
[out] > 100 µM

[in] Read off the recorded TGI for `O=C1C=C(OCC=C(Cl)Cl)C(=O)c2ccccc21`
[out] 7.71 µM

***
[in] Provide measured TGI value, entry: `Cn1c2c(c3c(=O)[nH]ncc31)CCCc1ccccc1-2`
[out] > 100 µM

###

# Tested on: SR leukemia
# assay: NCI tumour cell line growth inhibition, 48 h
GI50: recorded values

Below: 4 compounds and their reported GI50.
[in] # return recorded GI50 for input `CC(=O)N1c2ccc(-c3ccc(C(=O)O)cc3)cc2[C@H](Nc2ccc(Cl)cc2)C[C@@H]1C`
[out] 0.0342 µM

[in] Name the recorded GI50 of the item `COc1cc[nH]c1/C=C1\C(=O)Nc2ccc([N+](=O)[O-])c(N3CC[C@@H](O)C3)c21` in your answer.
[out] 0.0536 µM

[in] Please report the measured GI50 for `O=C(Nc1ccc(N2CCNCC2)cn1)c1[nH]ncc1Nc1ncnc2sc3c(c12)CCC3`
[out] 0.246 µM

[in] Give the measured GI50 for CNCC1CCn2c(c(C3=C(c4cn(C)c5ccccc45)C(=O)NC3=O)c3ccccc32)C1 (configuration not stated)
[out] 1.79 µM

***
[in] Could you please provide reported GI50 for CC1CC2(C)CC(=O)C1C1C(=O)N(CCN3CCOCC3)C(=O)C12 (configuration not stated) ? Thanks!
[out] > 100 µM

[in] Entry CCN1C(=O)N(CC)C2C1NN=c1s/c(=C\c3cnc(C)n3C)c(=O)n12 (configuration not stated) needs its GI50 filled in; supply it.
[out] 0.346 µM

[in] Using the record for `O=C1/C(=C/c2cccc(F)c2)CN(C(=O)C(Cl)Cl)C/C1=C\c1cccc(F)c1` , state its measured GI50.
[out] 0.0296 µM

###

# System: SK-MEL-28 melanoma
# assay: NCI tumour cell line growth inhibition, 48 h
endpoint.name: TGI

[in] Give recorded TGI. `COc1cc2c3c(n(CCCN4CCN(CCO)CC4)c(=O)c2cc1OC)-c1cc2c(cc1C3=O)OCO2`
[out] 32.1 µM

[in] Supply TGI value. Item: `N#CCCn1c(CCC(=O)Nc2ccc(Cl)cc2Cl)n[nH]c1=S`
[out] > 100 µM

[in] Using known records, supply TGI for COC(=O)C1=C(O)C(C(=O)OC)[C@@]2(O)[C@@H](C(=O)OC)C(c3ccccc3Cl)C[C@@H]1[C@@H]2C(=O)OC (stereo not given in full)
[out] 30.4 µM

[in] Fill in TGI for record `Nc1cc(N)c2nc(-c3ccccc3)c(Oc3ccc(Cl)c(Cl)c3)nc2c1`
[out] 64.2 µM

Let us examine a further case.
[in] # return recorded TGI for entry `O=c1cc(-c2cccc(Br)c2)[nH]c2cc3c(cc12)OCO3`
[out] > 100 µM

###

# Tested on: ACHN renal
# assay: NCI tumour cell line growth inhibition, 48 h
endpoint.name: TGI

Worked examples follow.
[in] Provide one value: measured TGI of Nc1nc2c(ncn2CC(CO)CC(c2ccccc2)P(=O)(O)O)c(=O)[nH]1 (centres undefined)
[out] > 100 µM

[in] Please look at this molecule and report its TGI: `COC(=O)[C@]1(C)CC[C@]2(C)CC[C@]3(C)C(=CC(=O)[C@@H]4[C@@]5(C)CCC(=O)NC(C)(C)[C@@H]5CC[C@]43C)[C@@H]2C1`
[out] 89.4 µM

---
[in] For the molecule `CN(C)c1ccc(/C=c2\sc3nnc(Cc4ccccc4)n3c2=O)cc1` , give its measured TGI value.
[out] > 100 µM

[in] State its TGI for this molecule: `Nc1ccc2c(c1)S(=O)(=O)c1cc(N)ccc1-2`
[out] > 100 µM

[in] Respond only with TGI recorded for CC(CNc1nc(Nc2ccc(Cl)c(Cl)c2)nc(C(Cl)(Cl)Cl)n1)N(C)C (centres undefined)
[out] 2.94 µM

[in] Input `CC(C)[C@H]1NC(=O)[C@H]2N=C(O[C@@H]2C)[C@@H]2CCCN2C(=O)[C@H](Cc2ccccc2)NC(=O)[C@@H]2COC(=N2)[C@@H](Cc2ccccc2)NC(=O)[C@@H]2COC1=N2` , output reported TGI.
[out] > 100 µM

[in] Supply reported TGI belonging to this molecule: `CC(=O)NC1=CC(=O)C=C(Cl)C1=O`
[out] > 100 µM

[in] Look up TGI of `Cc1cccc2c(=O)c3c(O)cc4c(c3n(C)c12)C=CC(C)(C)O4` and report it.
[out] > 100 µM

[in] Report TGI, nothing else, for this molecule: O=C(CC(C(=O)c1cccs1)c1ccccc1)c1ccccc1O (centres undefined)
[out] > 44.8 µM

###

# System: A549 NSCLC
# assay: NCI tumour cell line growth inhibition, 48 h
TGI by entry:

Previously resolved entries follow.
[in] Please indicate TGI recorded for `S=c1sscc1N1CCSc2ssc(=S)c21`
[out] > 100 µM

[in] Provide measured TGI value, entry: COc1c(OC2OC(CO)C(O)C(O)C2O)cc2c(c1OC)-c1ccc(OC)c(=O)cc1[C@@H](NC(C)=O)CC2 (stereo partly specified)
[out] > 100 µM

[in] Please report the measured TGI for ClCCCN1CCCCC1CCl (stereo unspecified)
[out] > 100 µM

[in] Return TGI (reported value) for this compound: `Cc1ccc(C(=O)N/N=C(\N=Nc2ccccc2)c2ccc(N(CCC#N)CCC#N)cc2C)cc1`
[out] > 100 µM

[in] Please give the documented TGI of `CC(=O)NC1=CC(=O)C=C(Cl)C1=O`
[out] > 100 µM

[in] Answer with reported TGI of C=[N+](CNC(=O)CNC(=O)C(Cc1ccccc1)NC(=O)OC(C)(C)C)C(=O)CNC(=O)C(Cc1ccccc1)NC(=O)OC(C)(C)C (stereo unspecified)
[out] > 100 µM

[in] Write down TGI measured for item N#CC1C(=O)NC(=O)C(C#N)C1c1ccc(Cl)c(Cl)c1 (stereo unspecified)
[out] > 100 µM

[in] Give TGI for the following compound: CC1OC(n2cnc3c(N)nc(Cl)nc32)C(C)(O)C1O (stereo unspecified)
[out] > 25 µM

---
[in] For `Nc1ncnc2c1ncn2COC/C=C/I` , write its TGI.
[out] > 100 µM

[in] # return recorded TGI for input CCNC(CCCC(NCC)P(=O)(O)O)P(=O)(O)O (stereo unspecified)
[out] > 100 µM

[in] Hello, please tell me recorded TGI for this one: `COc1ccc(OC)c(/C=C/C(=O)c2ccc3cc(OC)ccc3c2)c1`
[out] > 32.4 µM

[in] Given the compound `Cc1ccc2nnc(NS(=O)(=O)c3cc(C)c(Cl)cc3S)n2n1` , write its reported TGI.
[out] > 100 µM

[in] Indicate its recorded TGI; the compound in question is CCOC(=O)C1C(=O)c2cccc(OC)c2C2COC(=O)N12 (stereo unspecified)
[out] > 100 µM

[in] Kindly indicate its recorded TGI. Item: NC(C(=O)O)c1ccc(C(=O)O)cc1 (stereo unspecified)
[out] > 100 µM

[in] Give a short answer stating reported TGI for `COc1cc[nH]c1/C=C1\C(=O)Nc2ccc([N+](=O)[O-])c(N3CC[C@@H](O)C3)c21` .
[out] 2.18 µM

[in] Complete the entry with TGI for CC(=O)Nc1ccc2c3c(cc(O)c2c1)N(C(=O)CCCCCC(=O)Nc1ccc2c4c(cc(O)c2c1)N(C(=O)OC(C)(C)C)CC4CCl)CC3CCl (stereo unspecified)
[out] > 55 µM

###

# Tested on: MALME-3M melanoma
# assay: NCI tumour cell line growth inhibition, 48 h; in the data active = GI50 below about 0.43 µM; inactive = the rest
Hello, when you answer, please use one of the following outcomes: t for active, f for inactive

[in] Answer briefly: the call reported for `COC(=O)CCc1c(/C=C2\N=C(c3ccc[nH]3)C=C2OC)[nH]c(C)c1C(=O)OCc1ccccc1` in this assay.
[out] f

Others:
[in] Per the records of this test, what outcome belongs to `O=S1(=O)C=C(c2ccccc2)C(c2ccccc2)=C1` ?
[out] f

[in] Kindly provide the recorded test outcome for the following compound: `NS(=O)(=O)c1ccc(N=Nc2c(=O)[nH]c3ccc4[nH]cccc4c23)cc1`
[out] f

[in] Returns: the outcome recorded for `CCCC(CCC)C(=O)O` in this assay.
[out] f

[in] Record request — test call for `CN1CCN(Cc2ccc(NC(=O)c3cncc(C#Cc4ncc5ccccn45)c3)cc2C(F)(F)F)CC1`
[out] f

[in] Dear colleague, could you share the recorded outcome for `O=C1C=C(OCC=C(Cl)Cl)C(=O)c2ccccc21` when you have a moment?
[out] f

[in] Please let me know the test result on file for `O=C1/C(=C/c2cccc(F)c2)CN(C(=O)C(Cl)Cl)C/C1=C\c1cccc(F)c1` .
[out] t
